Data provenance is patent US5231107A.

Provide the reported LD50 at 168 h of each item.
experiment: in vivo; settings: mouse, po

The molecule CON=CC1=CCCN(C(=O)Oc2ccc(OC)c(OC)c2)C1 showed LD50 at 168 h equal to 175 mg/kg

The molecule C=CCOC(=O)N1CCC=C(C=NOC)C1 showed LD50 at 168 h equal to 175 mg/kg

The molecule CON=CC1=CCCN(C(=O)Oc2ccc(C)cc2)C1 showed LD50 at 168 h equal to 250 mg/kg

The molecule CON=CC1=CCCN(C(=O)Oc2ccccc2)C1 showed LD50 at 168 h equal to 500 mg/kg

The molecule CON=CC1=CCCN(C(=O)Oc2ccc(Cl)cc2)C1 showed LD50 at 168 h equal to > 1000 mg/kg

The molecule CON=CC1=CCCN(C(=O)Oc2ccc(C(C)(C)CC(C)(C)C)cc2)C1 showed LD50 at 168 h equal to 500 mg/kg

The molecule CCOC(=O)N1CCC=C(C=NOC)C1 showed LD50 at 168 h equal to 175 mg/kg

The molecule CON=CC1=CCCN(C(=O)Oc2ccc(F)cc2)C1 showed LD50 at 168 h equal to 500 mg/kg

The molecule CON=CC1=CCCN(C(=O)Oc2ccc(C(C)C)cc2)C1 showed LD50 at 168 h equal to > 1000 mg/kg

The molecule CON=CC1=CCCN(C(=O)Oc2ccc(Br)cc2)C1 showed LD50 at 168 h equal to > 1000 mg/kg
